tested on: MOLM14; test: cell viability relative to vehicle control; higher = less cytotoxic; settings: 10 µM; SRSF2 genotype: SRSF2 wt/wt;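 further: after 48 h exposure read by CellTiter-Glo luminescence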
Field: label. Allowed values: MET (cell viability < 90%) or NOT MET (cell viability >= 90%).

Lab note: confirm whether the reported cell viability for this molecule is below 90%, equality not counting. molecule: CN(C)CCOc1ccc(-c2nc(-c3ccncc3)c(-c3ccc4c(c3)CC/C4=N\O)[nH]2)cc1
MET

Decide: cell viability of CO/N=C(\C(=O)N[C@@H]1C(=O)N2C(C(=O)OCOC(=O)C(C)(C)C)=C(/C=C\c3scnc3C)CS[C@H]12)c1csc(N)n1 strictly below 90%?
NOT MET

Is cell viability strictly under 90% for the entry CO[C@@]1(NC(=O)CSC[C@@H](N)C(=O)O)C(=O)N2C(C(=O)O)=C(CSc3nnnn3C)CS[C@@H]21 [Cefminox Sodium] ?
NOT MET

Lab note: cell viability threshold 90%. Does this molecule come in strictly under it? Cc1cc(C)n(C)n1
NOT MET

Say whether its cell viability is strictly beneath 90%. Entry: O=C(NCc1ccc(Oc2ccccc2)cc1)c1nc(-c2cc(Br)c(O)c(Br)c2)no1
MET

In the record for COc1ccccc1-c1cc(Nc2cccc(CS(N)(=O)=O)c2)ncn1 , is cell viability less than 90%?
MET

Please let me know if O=c1ccc2ccc(O)c(O)c2o1 shows cell viability below 90%.
NOT MET

Determine if C#CCC(Cc1cnc2nc(N)nc(N)c2n1)c1ccc(C(=O)N[C@@H](CCC(=O)O)C(=O)O)cc1 (some centres undefined) [Pralatrexate(Folotyn)] shows cell viability strictly lower than 90%.
MET

* * *

Would you mind telling me the reported cell viability of each entry?
test system: MARIMO; assay: cell viability relative to vehicle control; higher = less cytotoxic; settings: 10 µM; SRSF2 genotype: SRSF2 wt/wt

# get_value(readout='cell viability', item= NS(N)(=O)=O [Sulfamide] )
103%

Any idea what cell viability was measured for CCCCNc1ncc2c(-c3ccc(CN4CCN(C)CC4)cc3)cn([C@H]3CC[C@H](O)CC3)c2n1 ?
5.67%

Look up cell viability for this compound: Cc1c(C(=O)Nc2ccc(N3C[C@@H](C)O[C@@H](C)C3)nc2)cccc1-c1ccc(OC(F)(F)F)cc1 [LDE225 (NVP-LDE225, Erismodegib)]
102%

Please report the recorded cell viability for O=C(/C=C/c1ccc(O[C@@H]2O[C@H](CO)[C@@H](O)[C@H](O)[C@H]2O)cc1)c1ccc(O)cc1O [Isoliquiritin] .
97.6%

Which cell viability value is on record for O=C([O-])[O-].[Li+].[Li+] [Lithium carbonate] ?
112%

# lookup: cell viability of COC1CCN(C(=O)c2cc(Cc3n[nH]c(=O)c4ccccc34)ccc2F)CC1
97.1%

Would you mind telling me what cell viability value was observed for Cc1ccc(NC(=O)c2ccc(CN3CC[C@H](N(C)C)C3)c(C(F)(F)F)c2)cc1Nc1nccc(-c2cncnc2)n1 [Bafetinib (INNO-406)] ?
43.2%

Suppose we examine the compound CN(C)CCCn1cc(C2=C(c3c[nH]c4ccccc34)C(=O)NC2=O)c2ccccc21 ; what cell viability value has been reported?
92%

What cell viability value was documented for this compound, CCC(=O)Nc1cccc(Oc2nc(Nc3ccc(N4CCN(C)CC4)cc3OC)ncc2Cl)c1 ?
68.3%

What cell viability value was documented for this compound, O=C(O)CCCC[C@@H]1SC[C@@H]2NC(=O)N[C@@H]21 [Biotin (Vitamin B7)] ?
103%

Could you share which cell viability value was measured for NS(=O)(=O)c1ccc(NC(=O)Nc2ccc(F)cc2)cc1 ?
113%

# query: cell viability of entry CC(NC(=O)C(O)c1cc(F)cc(F)c1)C(=O)NC1C(=O)N(C)c2ccccc2-c2ccccc21 (configuration not stated)
97.8%

Field request: cell viability | item: N#Cc1ccc(Oc2ccc3c(c2)COB3O)cc1 [Crisaborole (AN2728)]
72.9%

// query cell viability value for entry CC(=O)OCC1=C[C@@H]2OC(=O)C3=CO[C@@H](O[C@@H]4O[C@H](CO)[C@@H](O)[C@H](O)[C@H]4O)[C@H]1[C@@H]32 [Asperulosid]
94.3%

So what's the measured cell viability for this one? O=C(NCCCNc1nc(Nc2cccc(CN3CCOCC3)c2)ncc1C1CC1)C1CCC1
74.1%

Given the entry N#CC[C@H](C1CCCC1)n1cc(-c2ncnc3[nH]ccc23)cn1 [S-Ruxolitinib] , report its measured cell viability.
104%

Suppose we examine the compound Cn1nnc(-c2ccc3c(c2)[nH]c2nc(Cc4ccccc4)nc(NC4CCC(N)CC4)c23)n1 (configuration not stated) ; what cell viability value has been reported?
0.19%

* * *

system: OCI-AML2; test: cell viability relative to vehicle control; higher = less cytotoxic; details: 10 µM; SRSF2 genotype: wt/wt
Counter-ions that a name gives are not always drawn.
Under this convention, 1 (yes) denotes cell viability strictly below 90% and 0 (no) denotes cell viability at or above 90%.

API: query returns whether the compound falls strictly under 90% in cell viability. Query: CC(CCc1ccccc1)NCC(=O)c1ccc(O)c(C(N)=O)c1 (stereo not given) [Labetalone hydrochloride]
0 (no)

For this compound, is cell viability lower than 90%? O=C(Nc1ccc(OC(F)(F)Cl)cc1)c1cnc(N2CC[C@@H](O)C2)c(-c2cc[nH]n2)c1 [Asciminib (ABL001)]
1 (yes)

Input Cc1cn(-c2cc(NC(=O)c3ccc(C)c(Nc4nccc(-c5cnccn5)n4)c3)cc(C(F)(F)F)c2)cn1 [Radotinib] ; condition: cell viability strictly below 90%. Does it hold?
0 (no)

Identify whether the compound C[C@](N)(Cc1ccc(O)c(O)c1)C(=O)O [Methyldopa (Aldomet)] records cell viability below 90%.
0 (no)

Just wondering, is cell viability of O=C(O)[C@H]1O[C@@H](Oc2cc3oc(-c4ccc(O)cc4)cc(=O)c3c(O)c2O)[C@H](O)[C@@H](O)[C@@H]1O [Scutellarin] below 90%?
0 (no)

Confirm or reject: cell viability of O=C1CN(/N=C/c2ccc(-c3ccc([N+](=O)[O-])cc3)o2)C(=O)N1 [Dantrolene sodium hemiheptahydrate] lies strictly below 90%
0 (no)

Answer whether the compound CC1=CC(=O)NS(=O)(=O)O1 [Acesulfame Potassium] has cell viability strictly less than 90%
0 (no)

Field: below-cutoff. Rule: recorded cell viability strictly less than 90%. Subject: Cc1ccc(CN(CC(O)COc2cccc3[nH]ccc23)C(C)(C)C)cc1 (stereo not given)
1 (yes)

Does the reported cell viability of the following compound sit strictly below 90%? CCNC1(C(N)=O)CCN(c2ncnc3c2nc(-c2ccccc2Cl)n3-c2ccc(Cl)cc2)CC1
0 (no)

Quick check: does CC(=O)O[C@H](CC(=O)O)C[N+](C)(C)C [O-Acetyl-L-carnitine hydrochloride] have cell viability under 90%?
0 (no)

Find out if reported cell viability for CCCc1nn(C)c2c(=O)[nH]c(-c3cc(S(=O)(=O)N4CCN(C)CC4)ccc3OCC)nc12 [Sildenafil citrate] is less than 90%
0 (no)

Field: below-cutoff. Rule: recorded cell viability strictly less than 90%. Subject: O=C(O)C=Cc1cccc(O)c1 [3-Hydroxycinnamic acid]
0 (no)

Please let me know if CCc1cccc2c3c([nH]c12)C(CC)(CC(=O)O)OCC3 (stereo not given) [Etodolac (Lodine)] shows cell viability below 90%.
0 (no)

Hi there! Is cell viability for CC(=O)OC(CC(C)C1=C2CC(O)C3C4(C)CCC(=O)C(C)(C)C4CCC3(C)C2(C)CC1)C1OC1(C)C (stereo not given) [Alisol B Acetate] below 90%, do you know?
1 (yes)

In the record for CC[C@@H]1/C=C(\C)C[C@H](C)C[C@H](OC)[C@H]2O[C@@](O)(C(=O)C(=O)N3CCCC[C@H]3C(=O)O[C@H](/C(C)=C/[C@@H]3CC[C@@H](O)[C@H](OC)C3)[C@H](C)[C@@H](O)CC1=O)[C@H](C)C[C@@H]2OC [Ascomycin (FK520)] , is cell viability less than 90%?
0 (no)

* * *

Record form. Attribute: cell viability. Fill in for each entry.
test system: OCI-AML2; assay: cell viability relative to vehicle control; higher = less cytotoxic; settings: 10 µM; SRSF2 genotype: P95H/wt
Structures can show the parent of a compound that is named as a salt.
A number alone suffices; assume %.

Return cell viability measured with OCI-AML2 given this molecule: CC(C)(Oc1ccc(Cl)cc1)C(=O)OCCOC(=O)c1cccnc1 [Etofibrate]
83.5

Given the entry COc1cc(C(=O)NC2CCN(C)CC2)ccc1Nc1ncc2c(n1)N(C1CCCC1)CC(F)(F)C(=O)N2C , what cell viability was observed with OCI-AML2?
4.16

Request body: readout cell viability, system OCI-AML2, query COc1ccccc1OCCN . Return the value.
119

Requested read-out cell viability, target or system OCI-AML2, entry Cn1c(=O)cc(N2CCC[C@@H](N)C2)n(Cc2cc(F)ccc2C#N)c1=O
100

Entry O=C(NC1CCOCC1)c1ccc(-c2cc(-c3c[nH]nc3-c3ccccn3)ccn2)cc1 , system OCI-AML2: what cell viability was measured?
101

# returns recorded cell viability (system: OCI-AML2) for CCN(CC)C(=O)C1(c2ccccc2)CC1CN (configuration not stated) [Milnacipran HCl]
106

Checklist item: cell viability tested on OCI-AML2, entry Cc1ccc(-n2nc(C(C)(C)C)cc2NC(=O)NCc2cc(F)ccc2Oc2ccc3c(cnn3CCO)c2)cc1 , value?
50

Give recorded cell viability with OCI-AML2 for the following molecule: Cc1onc(-c2c(F)cccc2Cl)c1C(=O)N[C@@H]1C(=O)N2[C@@H]1SC(C)(C)[C@@H]2C(=O)O [Flucloxacillin sodium]
99.6

Look up cell viability with OCI-AML2 for this molecule: CCNc1nc(Nc2cc(F)c(C(=O)N3CCOCC3)cc2OC)ncc1C(F)(F)F
87.8

// map C[C@H]1O[C@@H](O[C@H]2CC[C@@]3(C)[C@@H](CC[C@]4(C)[C@@H]3C=C[C@]35OC[C@@]6(CCC(C)(C)C[C@H]63)[C@H](O)C[C@]54C)[C@]2(C)CO)[C@H](O)[C@@H](O[C@@H]2O[C@H](CO)[C@@H](O)[C@H](O)[C@H]2O)[C@H]1O to recorded cell viability (system: OCI-AML2)
10.2

So what cell viability did COc1ccc(S(=O)(=O)Nc2nc(-c3cccc([N+](=O)[O-])c3)cs2)cc1OC get with OCI-AML2?
95.4

Record lookup: for OCI-AML2, what cell viability belongs to CC(=C(CCOC(=O)C(C)C)SSC(CCOC(=O)C(C)C)=C(C)N(C=O)Cc1cnc(C)nc1N)N(C=O)Cc1cnc(C)nc1N (stereo in doubt) ?
84.7

Query the reported cell viability for OCI-AML2; item: Cc1ccc(S(=O)(=O)OCC(=O)Nc2ccc(C(=O)O)c(O)c2)cc1
94.2

Item CCOC(=O)C1OC1C(=O)NC(CC(C)C)C(=O)NCCC(C)C (configuration not stated) with OCI-AML2 - cell viability?
98.5

Item C[C@H](CCC(=O)NCCS(=O)(=O)O)[C@H]1CC[C@H]2[C@@H]3[C@H](O)C[C@@H]4C[C@H](O)CC[C@]4(C)[C@H]3C[C@H](O)[C@]12C [Taurocholic acid sodium salt hydrate] with OCI-AML2 - cell viability?
106

// lookup cell viability | system=OCI-AML2 | key= CN1CCCC(n2nc(Cc3ccc(Cl)cc3)c3ccccc3c2=O)CC1 (configuration not stated) [Azelastine hydrochloride (Astelin)]
75.9

# returns recorded cell viability (system: OCI-AML2) for O=C(O)CNC(=O)c1nc(Cl)c2ccccc2c1O
95.8

Give the reported cell viability for CN[C@@H](C)C(=O)N[C@H](C(=O)N1CCC[C@H]1C(=O)N[C@H](C(=O)NCCCCCCNC(=O)[C@@H](NC(=O)[C@@H]1CCCN1C(=O)[C@@H](NC(=O)[C@H](C)NC)C1CCCCC1)C(c1ccccc1)c1ccccc1)C(c1ccccc1)c1ccccc1)C1CCCCC1 (system: OCI-AML2).
4.1

Missing value: cell viability, OCI-AML2, entry O=S(=O)(O)c1ccc2cc(N=Nc3cc(S(=O)(=O)O)c4cccnc4c3O)ccc2c1 . Fill in?
88.5

Under OCI-AML2: cell viability value of Cc1ccc(Nc2nccc(N(C)c3ccc4c(C)n(C)nc4c3)n2)cc1S(N)(=O)=O [Pazopanib] ?
73.8

Provide the documented cell viability with OCI-AML2 as the system for O=C(Nc1ccc(Br)cc1)c1c(O)cccc1O
4.86

Under OCI-AML2: cell viability value of O=c1c(-c2ccc(O)cc2)coc2cc(O)cc(O)c12 ?
81.8

# get_value(readout= cell viability, system= OCI-AML2) for Cc1ccc(C(=O)Cn2c3c(sc2=N)CCCC3)cc1
83.9

What reported cell viability corresponds to COc1cc(-c2coc3cc4c(c(OC)c3c2=O)OCO4)cc(OC)c1OC on OCI-AML2?
81.6

What measured cell viability is associated with CC12CC3CC(C)(C1)CC(N)(C3)C2 [Memantine hydrochloride (Namenda)] on OCI-AML2?
90.3

Param readout = cell viability; param system = OCI-AML2; param query = CC(C)N(CCC(=O)c1ccc2ccccc2c1)Cc1ccccc1 ; response: value
0.38

Identify the measured cell viability of O=C1N=C(N2CCOCC2)CN1c1ccc(Cl)cc1 for OCI-AML2.
95.4

Param readout = cell viability; param system = OCI-AML2; param query = O=c1[nH]c(=O)n([C@H]2C[C@H](O)[C@@H](CO)O2)cc1Br ; response: value
90.5

Write down the reported cell viability of CC(C)=CCc1cc2c(cc1O)O[C@H](c1ccc(O)cc1)CC2=O , test system: OCI-AML2.
101

Item O=C(NOCCO)c1ccc2cncn2c1Nc1ccc(I)cc1F with OCI-AML2 - cell viability?
39.1

Query for OCI-AML2: what cell viability does the record show for COc1cc2oc(-c3ccc(O)cc3)cc(=O)c2c(O)c1[C@@H]1O[C@H](CO)[C@@H](O)[C@H](O)[C@H]1O[C@@H]1O[C@H](CO)[C@@H](O)[C@H](O)[C@H]1O ?
99.2

Reported cell viability for OCI-AML2, given CC(=O)Nc1cccc2c1c(Sc1ccc(Cl)cc1)c(C)n2CC(=O)O ?
101
